Assayed system: T1, Anti-CD28 Fab (SEQ ID NOs: 202, 203)
T1 construct: biotinylated and captured on neutravidin coated plates in the phage ELISA
T1 sequence (VH, as listed by the source, chain 1 of 2): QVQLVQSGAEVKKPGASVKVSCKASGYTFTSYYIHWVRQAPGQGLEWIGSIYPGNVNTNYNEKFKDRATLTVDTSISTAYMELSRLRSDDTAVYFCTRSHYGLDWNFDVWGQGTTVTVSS
T1 sequence (VL, as listed by the source, chain 2 of 2): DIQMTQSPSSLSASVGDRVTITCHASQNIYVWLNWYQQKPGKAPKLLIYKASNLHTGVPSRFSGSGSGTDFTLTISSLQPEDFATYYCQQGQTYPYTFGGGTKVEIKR
Assay protocol: phage ELISA, Fab on plate;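 also: crude clonal phage supernatants added to wells pretreated with blocking buffer with or without CD28 antigen, then bound phage read out via HRP-linked anti-M13 antibody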
I'd be grateful if you could share measured Anti-CD28 Fab (SEQ ID NOs: 202, 203) signal for these entries.
Kindly provide the number alone.

Request: Identify measured Anti-CD28 Fab (SEQ ID NOs: 202, 203) signal corresponding to YCDGHRPEYMSKCL [Phage-706]
Response: 1.18

Request: Report Anti-CD28 Fab (SEQ ID NOs: 202, 203) signal for YCEGHMEKYMEKCL [Phage-641]
Response: 1.35

Request: Quote Anti-CD28 Fab (SEQ ID NOs: 202, 203) signal reported for YCDGHSKEYMAKCL [Phage-646] please.
Response: 1.34

Request: Hello, please tell me recorded Anti-CD28 Fab (SEQ ID NOs: 202, 203) signal for this one: YCDGHSMMYMQKCL [Phage-695]
Response: 1.23

Request: Give the reported Anti-CD28 Fab (SEQ ID NOs: 202, 203) signal for this binder. YCDGHQPQYMSKCL [Phage-628]
Response: 1.38

Request: For the binder YCEGHLVQYMQKCL [Phage-669] , give its reported Anti-CD28 Fab (SEQ ID NOs: 202, 203) signal.
Response: 1.28

Request: Please supply the value of reported Anti-CD28 Fab (SEQ ID NOs: 202, 203) signal for the item YCAGHLDIYLAKCL [Phage-701]
Response: 1.21

Request: Item YCEGHSTEYMAKCL [Phage-676] : provide Anti-CD28 Fab (SEQ ID NOs: 202, 203) signal
Response: 1.27
